Test: NCI Yeast Anticancer Drug Screen. Data for the mec2-1 strain (AID 157)
Conditions: S. cerevisiae mec2-1 strain, at 50.0 µM, active compounds read high
Method: Growth inhibition of yeast strains with defined genetic alterations is measured as a screen for potential anti-cancer activity. Selected strains with alterations in DNA damage repair or cell cycle control were exposed to compounds and growth inhibition was measured relative to vehicle treated controls. The strain used in this assay is mec2-1
This is part of a sample that, as a whole, favours compounds with a hit. Of some 79,000 tested, about 15% had one in any assay.
Decide using growth inhibition: a value greater than or equal to -20% is rule met, a smaller one is rule not met.

> print(dat)
                                   molecule      category
1  CC(O)C(NC(=O)c1cnc(OCc2ccccc2)nc1N)C(=O)O (stereo unspecified)      rule met
2  COc1nc2c(c(O)c(C)c(=O)n2OC2OCC(OC(C)=O)C(OC(C)=O)C2OC(C)=O)c(=O)n1C (stereo unspecified)      rule met
3  CCOC(=O)Cn1c(=O)n(C)c(=O)c2c1ncn2Cc1ccccc1  rule not met

Is the recorded value of growth inhibition equal to or greater than -20% for this molecule? `Cn1c2ccccc2c(=O)c2cc(NC(=O)CCCCCCCC(=O)Nc3ccc4c(c3)c(=O)c3ccccc3n4C)ccc21`
rule met

Please tell me: is the molecule `C=CCOC(=O)OCCOC(=O)OCC=C` at or over -20% in terms of growth inhibition?
rule met

Please tell me: is the molecule `O=C(O)C(CCOc1ccccc1)CCOc1ccccc1` at or over -20% in terms of growth inhibition?
rule met
